- Target desc: PI3K-δ (PI3K(p1108/p857) (h)) (Homo sapiens)
- Sequence (O00329 whole entry): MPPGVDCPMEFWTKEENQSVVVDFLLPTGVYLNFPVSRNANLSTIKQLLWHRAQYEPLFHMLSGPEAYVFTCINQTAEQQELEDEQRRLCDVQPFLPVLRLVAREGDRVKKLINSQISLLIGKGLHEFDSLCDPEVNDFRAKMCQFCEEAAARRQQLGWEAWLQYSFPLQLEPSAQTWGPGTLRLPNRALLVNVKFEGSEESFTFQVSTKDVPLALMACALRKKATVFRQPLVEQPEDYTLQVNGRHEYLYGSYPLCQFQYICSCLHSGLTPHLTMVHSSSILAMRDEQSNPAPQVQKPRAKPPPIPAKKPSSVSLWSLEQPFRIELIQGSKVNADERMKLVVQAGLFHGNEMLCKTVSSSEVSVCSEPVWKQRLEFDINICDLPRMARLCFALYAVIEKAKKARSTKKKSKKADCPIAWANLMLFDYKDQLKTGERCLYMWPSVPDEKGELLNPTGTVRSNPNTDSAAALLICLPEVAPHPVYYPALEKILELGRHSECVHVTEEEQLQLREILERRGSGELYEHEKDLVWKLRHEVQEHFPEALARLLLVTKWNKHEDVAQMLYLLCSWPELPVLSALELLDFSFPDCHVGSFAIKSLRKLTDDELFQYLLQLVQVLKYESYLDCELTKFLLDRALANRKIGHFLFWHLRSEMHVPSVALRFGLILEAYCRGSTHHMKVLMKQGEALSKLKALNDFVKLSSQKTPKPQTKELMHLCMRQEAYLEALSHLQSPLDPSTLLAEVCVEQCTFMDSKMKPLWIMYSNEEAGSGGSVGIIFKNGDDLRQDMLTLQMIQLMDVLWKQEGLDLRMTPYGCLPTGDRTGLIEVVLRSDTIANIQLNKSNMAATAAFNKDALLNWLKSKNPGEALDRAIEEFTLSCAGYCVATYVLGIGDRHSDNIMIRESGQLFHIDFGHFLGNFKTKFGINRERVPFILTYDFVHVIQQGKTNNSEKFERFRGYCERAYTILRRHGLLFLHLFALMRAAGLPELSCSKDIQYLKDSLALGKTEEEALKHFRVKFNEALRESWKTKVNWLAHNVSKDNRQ
- Sequence (P27986 whole entry partner): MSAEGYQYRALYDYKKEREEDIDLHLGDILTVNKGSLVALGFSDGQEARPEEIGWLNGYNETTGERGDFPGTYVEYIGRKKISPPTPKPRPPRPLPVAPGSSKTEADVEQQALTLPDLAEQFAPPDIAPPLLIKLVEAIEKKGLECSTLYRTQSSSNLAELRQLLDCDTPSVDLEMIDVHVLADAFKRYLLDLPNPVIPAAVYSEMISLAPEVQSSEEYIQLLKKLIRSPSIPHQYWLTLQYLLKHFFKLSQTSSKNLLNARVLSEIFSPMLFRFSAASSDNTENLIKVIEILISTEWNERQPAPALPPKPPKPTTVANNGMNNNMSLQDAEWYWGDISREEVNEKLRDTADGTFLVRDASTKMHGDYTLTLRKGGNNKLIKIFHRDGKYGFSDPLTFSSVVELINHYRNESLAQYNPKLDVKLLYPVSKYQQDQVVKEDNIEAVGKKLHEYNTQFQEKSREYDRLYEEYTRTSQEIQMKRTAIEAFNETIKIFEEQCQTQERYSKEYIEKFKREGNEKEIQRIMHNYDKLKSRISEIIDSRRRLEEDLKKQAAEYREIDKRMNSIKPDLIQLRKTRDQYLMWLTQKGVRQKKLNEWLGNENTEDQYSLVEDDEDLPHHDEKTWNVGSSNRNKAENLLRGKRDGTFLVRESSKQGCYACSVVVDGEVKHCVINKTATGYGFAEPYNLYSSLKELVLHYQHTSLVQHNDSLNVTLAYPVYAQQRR
- Test details: Evaluation of inhibitory activity against PI3K-δ (HTRF kinase assay)
- Format: biochemical
- Experimental setup: compound at 0.1 μM; read-out: EXP_VALUE(% Inhibition) PI3K-δ 0.1 μM
Quantity kind: inhibition at 0.1 µM (%)

- Molecule: "CC[S@@](=N)(=O)c1cccc2c(Cl)c([C@H](C)Nc3ncnc4[nH]ccc(=O)c34)n(-c3ccccc3)c(=O)c12"
  inhibition at 0.1 µM [%]: 24

a: C[C@H](Nc1ncnc2[nH]ccc(=O)c12)c1c(Cl)c2cccc(C(F)(F)F)c2c(=O)n1-c1ccccc1
b: CC(C)Oc1cnc(-c2cccc3c(Cl)c([C@H](C)Nc4ncnc5[nH]ccc(=O)c45)n(-c4ccccc4)c(=O)c23)cn1
Between item a and item b , which reported inhibition at 0.1 µM is smaller? Your choice should be expressed through its label.
b
(b: 49%, a: 90%)

A: C[C@H](Nc1ncnc2[nH]ccc(=O)c12)c1c(Cl)c2cccc(Oc3ccncc3)c2c(=O)n1-c1ccccc1
B: C[C@H](Nc1ncnc2[nH]ccc(=O)c12)c1c(Cl)c2cccc(SC3COC3)c2c(=O)n1-c1ccccc1
C: C[C@H](Nc1ncnc2[nH]ccc(=O)c12)c1c(Cl)c2cccc(S)c2c(=O)n1-c1ccccc1
D: C[C@H](Nc1ncnc2[nH]ccc(=O)c12)c1c(Cl)c2cccc(S(=O)(=O)C(C)(C)C)c2c(=O)n1-c1ccccc1
E: COc1cc(-n2ccc(=O)c3c(N[C@@H](C)c4c(Cl)c5ccccc5c(=O)n4-c4ccccc4)ncnc32)ccn1
Ascending by inhibition at 0.1 µM, please: list the molecules accordingly. Could you list the labels in the order requested?
B, D, E, C, A

====

- Target desc: PI3K-δ (PI3K(p1108/p857) (h)) (Homo sapiens)
- Test details: Evaluation of inhibitory activity against PI3K-δ (HTRF kinase assay)
- Assay type: biochemical
- Experimental setup: compound concentration 0.01 μM; read-out: EXP_VALUE(% Inhibition) PI3K-δ 0.01 μM
Quantity kind: inhibition at 0.01 µM (%)

1: Cc1cc(-c2cccc3c(Cl)c([C@H](C)Nc4ncnc5[nH]ccc(=O)c45)n(-c4ccccc4)c(=O)c23)ccc1F
2: C[C@H](Nc1ncnc2[nH]ccc(=O)c12)c1c(Cl)c2cccc(-c3ccc(N4CCOCC4)nc3)c2c(=O)n1-c1ccccc1
Between item 1 and item 2 , which reported inhibition at 0.01 µM is smaller? Your choice should be expressed through its label.
2

1: C[C@H](Nc1ncnc2[nH]ccc(=O)c12)c1c(Cl)c2cccc(-c3cnc(OCc4ccccc4)nc3)c2c(=O)n1-c1ccccc1
2: CSc1ccc(-c2cccc3c(Cl)c([C@H](C)Nc4ncnc5[nH]ccc(=O)c45)n(-c4ccccc4)c(=O)c23)cc1
Which value of inhibition at 0.01 µM is numerically greater: that of 1 or that of 2 ? Your choice should be expressed through its label.
1

====

- Target desc: PI3K-δ (PI3K(p1108/p857) (h)) (Homo sapiens)
- Test details: Evaluation of inhibitory activity against PI3K-δ (HTRF kinase assay)
- Type: biochemical
- Experimental setup: compound concentration 0.01 μM; read-out: EXP_VALUE(% Inhibition) PI3K-δ 0.01 μM
Quantity kind: inhibition at 0.01 µM (%)

Worked set:
- Compound: "C[C@H](Nc1ncnc2[nH]ccc(=O)c12)c1c(Cl)c2cccc(-c3ccc(S(C)(=O)=O)nc3)c2c(=O)n1-c1ccccc1 [Example 219]"
  Target desc: "PI3K-δ (PI3K(p1108/p857) (h)) (Homo sapiens)"
  Reading: 97
- Compound: "C[C@H](Nc1ncnc2[nH]ccc(=O)c12)c1cc2cccc(-c3ccc(N(C)C)nc3)c2c(=O)n1-c1ccccc1 [Example 264]"
  Target desc: "PI3K-δ (PI3K(p1108/p857) (h)) (Homo sapiens)"
  Reading: 73
- Compound: "C[C@H](Nc1ncnc2[nH]ccc(=O)c12)c1c(Cl)c2cccc(-c3ccc(OC4CCOCC4)nc3)c2c(=O)n1-c1ccccc1 [Example 162]"
  Target desc: "PI3K-δ (PI3K(p1108/p857) (h)) (Homo sapiens)"
  Reading: 81
- Compound: "C[C@H](Nc1ncnc2[nH]ccc(=O)c12)c1c(Cl)c2cccc(-c3ccc4nccn4c3)c2c(=O)n1-c1ccccc1 [Example 113]"
  Target desc: "PI3K-δ (PI3K(p1108/p857) (h)) (Homo sapiens)"
  Reading: 82

a: CC(C)NC(=O)c1cccc2c(Cl)c([C@H](C)Nc3ncnc4[nH]ccc(=O)c34)n(-c3ccccc3)c(=O)c12 [Example 282]
b: C[C@H](Nc1ncnc2[nH]ccc(=O)c12)c1c(Cl)c2cccc(C#Cc3cncs3)c2c(=O)n1-c1ccccc1 [Example 313]
c: C[C@H](Nc1ncnc2[nH]ccc(=O)c12)c1c(Cl)c2cccc(-c3ncon3)c2c(=O)n1-c1ccccc1 [Example 351]
Put the items in sequence by inhibition at 0.01 µM, from largest down. Could you list the labels in the order requested?
a, c, b
